Numbers sourced from ChEMBL document CHEMBL1201862.

- Tested on: HCT-116
- method-notes: NCI tumour cell line growth inhibition, 48 h
Calls of active or inactive are those of the source. Rule as the data show it: active = GI50 up to about 1.1 µM and inactive = higher.
Outcome codes: T for active, F for inactive

[
  {
    "compound": "O=C(O)CCSCCCN1C(=O)c2ccccc2C1=O",
    "assigned-label": "F"
  },
  {
    "compound": "Cc1cc2nc3ccc(N(C)C)cc3[s+]c2cc1N [TOLONIUM CHLORIDE]",
    "assigned-label": "F"
  },
  {
    "compound": "COc1c(C)c2c(c(=O)c3c(C)cccc3n2C)c2c1c(=O)c1c(C)cccc1n2C",
    "assigned-label": "F"
  },
  {
    "compound": "COc1ccc(-c2c(C#N)c(S)n(NS(=O)(=O)c3ccccc3)c(=O)c2C#N)cc1",
    "assigned-label": "F"
  },
  {
    "compound": "COc1cc2c(cc1OC(=O)c1cc3ccccc3[nH]1)N=C[C@@H]1CCCN1C2=O",
    "assigned-label": "T"
  },
  {
    "compound": "CN(C)c1ccc(C=c2c3ccccc3n3c2c2c([n+]3C)CCCC2)cc1",
    "assigned-label": "T"
  },
  {
    "compound": "COc1ccc(C(=O)/C=C/c2ccncc2)cc1OC",
    "assigned-label": "F"
  },
  {
    "compound": "Cc1ccc(C(=O)Nc2ccc(S(=O)(=O)O)c3cc(S(=O)(=O)O)cc(S(=O)(=O)O)c23)cc1NC(=S)Nc1cc(C(=O)Nc2ccc(S(=O)(=O)O)c3cc(S(=O)(=O)O)cc(S(=O)(=O)O)c23)ccc1C",
    "assigned-label": "F"
  },
  {
    "compound": "O=c1nc(-c2ccccc2)scc1-c1ccccc1",
    "assigned-label": "F"
  }
]

----------
- Test system: LOX IMVI
- method-notes: NCI tumour cell line growth inhibition, 48 h
Activity calls are given as the source filed them. Rule as the data show it: active = GI50 up to about 1.1 µM and inactive = higher.
Outcome codes: yes = active, no = inactive

[
  {
    "molecule": "O=C(O)/C=C/c1ccncc1",
    "assigned-label": "no"
  },
  {
    "molecule": "O=C(Cc1ccc([N+](=O)[O-])c([N+](=O)[O-])c1CC(=O)C(=O)Nc1cc(Cl)ccc1Cl)C(=O)Nc1cc(Cl)ccc1Cl",
    "assigned-label": "no"
  },
  {
    "molecule": "O=C(O[C@H]1[C@@H](O)[C@H](n2cnc3c(Cl)ncnc32)O[C@@H]1COC(c1ccccc1)(c1ccccc1)c1ccccc1)c1ccccc1",
    "assigned-label": "no"
  },
  {
    "molecule": "COc1cc2c(cc1OC(=O)c1cc3ccccc3[nH]1)N=C[C@@H]1CCCN1C2=O",
    "assigned-label": "yes"
  },
  {
    "molecule": "C/C1=C\\CC[C@@]2(C)O[C@@H]2C[C@@H](C2(C)CO2)CC/C(C)=C/CC1 (stereo partly specified)",
    "assigned-label": "no"
  },
  {
    "molecule": "Nc1nc(Cl)cc(NCC2(CO)CC(O)C2)n1 (stereo unspecified)",
    "assigned-label": "no"
  },
  {
    "molecule": "Nc1ccc(/C=C/c2ccc3cccnc3c2)cc1",
    "assigned-label": "no"
  },
  {
    "molecule": "C/C(=N\\N=C(/S)N(C)C)c1cccnn1",
    "assigned-label": "yes"
  },
  {
    "molecule": "COc1ccc(NC(=O)CC(=O)N2N=C(C)C(/N=N/c3ccc(C(=O)O)cc3)C2=O)cc1 (stereo unspecified)",
    "assigned-label": "no"
  },
  {
    "molecule": "CCCCCCn1c(SC)nc(COC(=O)NC)c1COC(=O)NC",
    "assigned-label": "no"
  },
  {
    "molecule": "COCN1C(=O)[C@@H]2CCCN2C(=O)c2cc(OC)c(Cc3ccccc3)cc21",
    "assigned-label": "no"
  },
  {
    "molecule": "O=C(O)c1c(CC(Cc2ccccc2)C(=O)O)ccc2c1CCC2 (stereo unspecified)",
    "assigned-label": "no"
  },
  {
    "molecule": "Cn1c(=O)c2c(nc3sc4c(n32)C(=O)c2c(O)ccc(O)c2C4=O)n(C)c1=O",
    "assigned-label": "yes"
  },
  {
    "molecule": "COc1cc2c(cc1OCCCCCCCCN1C(=O)c3cccc4cccc(c34)C1=O)N=C[C@@H]1CCCN1C2=O",
    "assigned-label": "no"
  },
  {
    "molecule": "CO/N=C(\\C)CCC#Cc1ccccc1C(=O)OC",
    "assigned-label": "no"
  },
  {
    "molecule": "O=C(CCc1cccc(O)c1)NCCc1cccc(OCc2ccccc2)c1",
    "assigned-label": "no"
  }
]

----------
- Test system: HCT-116
- method-notes: NCI tumour cell line growth inhibition, 48 h
Activity calls are given as the source filed them. Cut-off read from the data, not from the text of the source: active = GI50 up to about 1.1 µM and inactive = higher.
Outcome codes: yes (active), no (inactive)

[
  {
    "compound": "CC(C)C[C@H](NC(=O)[C@H](CCc1ccccc1)NC(=O)c1ccc2ccccc2n1)B(O)O",
    "tested-system": "HCT-116",
    "assigned-label": "yes"
  },
  {
    "compound": "O=C1NCC2(CCNCC2)N1",
    "tested-system": "HCT-116",
    "assigned-label": "no"
  },
  {
    "compound": "CCOC(=O)NC(=O)c1cn(CCSCCOC(=O)NCCCCCCNC(=O)OCCSCCn2cc(C(=O)NC(=O)OCC)c(=O)n(C)c2=O)c(=O)n(C)c1=O",
    "tested-system": "HCT-116",
    "assigned-label": "no"
  },
  {
    "compound": "COc1cc2cc3c4c(cc(OC)c(OC)c4c2cc1OC)CCN3C(=O)CCC(=O)O",
    "tested-system": "HCT-116",
    "assigned-label": "no"
  },
  {
    "compound": "Cc1ccc(C(=O)O)c(CC2Cc3c(C)cccc3C2=O)c1 (stereo not given)",
    "tested-system": "HCT-116",
    "assigned-label": "no"
  }
]

----------
- Test system: MDA-N
- method-notes: NCI tumour cell line growth inhibition, 48 h
Activity calls are given as the source filed them. Rule as the data show it: active = GI50 up to about 1.1 µM and inactive = higher.
Outcome codes: active, inactive

[
  {
    "compound": "COc1ccc(NC(C)=O)c(C(=O)CCNC(C)=O)c1",
    "tested-system": "MDA-N",
    "assigned-label": "inactive"
  },
  {
    "compound": "Cc1ccc(C2=Nc3cccc4cccc(c34)N2)cc1",
    "tested-system": "MDA-N",
    "assigned-label": "inactive"
  },
  {
    "compound": "Cc1cc(C#N)c(Nc2c(C)cccc2[N+](=O)[O-])s1",
    "tested-system": "MDA-N",
    "assigned-label": "inactive"
  },
  {
    "compound": "CN(C)c1ccc(C=c2c3ccccc3n3c2c2c([n+]3C)CCCC2)cc1",
    "tested-system": "MDA-N",
    "assigned-label": "active"
  },
  {
    "compound": "O=C1NC(N2CCCCC2)=N/C1=C\\c1ccccc1",
    "tested-system": "MDA-N",
    "assigned-label": "inactive"
  },
  {
    "compound": "Cc1cc2nc(CC(C(F)(F)F)C(F)(F)F)oc2cc1C",
    "tested-system": "MDA-N",
    "assigned-label": "inactive"
  },
  {
    "compound": "Cc1cn(CCCCCCC2=NCCCN2)c(=O)[nH]c1=O",
    "tested-system": "MDA-N",
    "assigned-label": "inactive"
  },
  {
    "compound": "CC(C)C[C@H](NC(=O)[C@H](CCc1ccccc1)NC(=O)c1ccc2ccccc2n1)B(O)O",
    "tested-system": "MDA-N",
    "assigned-label": "active"
  },
  {
    "compound": "O=C(/C=C1\\C[C@H]2C=Nc3ccccc3C(=O)N2C1)NCCCCCNC(=O)/C=C1\\C[C@H]2C=Nc3ccccc3C(=O)N2C1",
    "tested-system": "MDA-N",
    "assigned-label": "inactive"
  },
  {
    "compound": "CC(C)=CCNc1ncnc2c1ncn2CCC#N",
    "tested-system": "MDA-N",
    "assigned-label": "inactive"
  },
  {
    "compound": "Cc1cc2nc3ccc(N(C)C)cc3[s+]c2cc1N [TOLONIUM CHLORIDE]",
    "tested-system": "MDA-N",
    "assigned-label": "active"
  },
  {
    "compound": "O=C(O)c1ccc(C2=Nc3cccc4cccc(c34)N2)cc1",
    "tested-system": "MDA-N",
    "assigned-label": "inactive"
  },
  {
    "compound": "CCN(CC)C(=S)SS(=O)(=O)c1ccc(NC(C)=O)cc1",
    "tested-system": "MDA-N",
    "assigned-label": "inactive"
  },
  {
    "compound": "CCCN(CCC)C(=S)N/N=C/c1ccccn1",
    "tested-system": "MDA-N",
    "assigned-label": "active"
  },
  {
    "compound": "O=C(NCCN1CCOCC1)c1cn2c(ccc3sc4ccccc4c(=O)c32)n1",
    "tested-system": "MDA-N",
    "assigned-label": "inactive"
  },
  {
    "compound": "CCCCCCn1c(SC)nc(COC(=O)NC)c1COC(=O)NC",
    "tested-system": "MDA-N",
    "assigned-label": "inactive"
  },
  {
    "compound": "CCn1c2ccccc2c2ccc(C3C(C(=O)OC)=C(C)NC(C)=C3C(=O)OC)cc21",
    "tested-system": "MDA-N",
    "assigned-label": "inactive"
  },
  {
    "compound": "C/C=C1\\CC(C(=O)OCC)CCCCCCC1=O (stereo not given)",
    "tested-system": "MDA-N",
    "assigned-label": "inactive"
  },
  {
    "compound": "N/C(=N\\Nc1nc2cc([N+](=O)[O-])ccc2o1)c1ccccn1",
    "tested-system": "MDA-N",
    "assigned-label": "active"
  },
  {
    "compound": "COc1cccc2cc(C(=O)NC34CC5CC(CC(C5)C3)C4)c(=N)oc12",
    "tested-system": "MDA-N",
    "assigned-label": "inactive"
  }
]
